System: CML CFU-G
Test: Granulocyte colony formation of circulating mononuclear cells from CML patients (CFU-G / CFU-GM)
Assay type: cell-based, human
Conditions: Homo sapiens, CFU-GM, read-out: IC50 for Adaphostin without STI571, CFU-GM, patient number 33; linear regression
Endpoint Label: pIC50
Convention used: pIC50 is expressed as -log10 of the molar concentration.

Prompt: pIC50 for `O=C(OC12CC3CC(CC(C3)C1)C2)c1ccc(NCc2cc(O)ccc2O)cc1` ?
Response: 4.64

----------
System: CML CFU-G
Experiment: Granulocyte colony formation of circulating mononuclear cells from CML patients (CFU-G / CFU-GM)
Type: cell-based, human
Conditions: Homo sapiens, CFU-GM, read-out: IC50 for Adaphostin without STI571, CFU-GM, patient number 31; linear regression
Endpoint Label: IC50 (µM)
Only the number, expressed in µM, is required.

Prompt: IC50 for O=C(OC12CC3CC(CC(C3)C1)C2)c1ccc(NCc2cc(O)ccc2O)cc1 [Adaphostin] ?
Response: 8.5
